Provenance of the data: PubChem BioAssay (NCI)

Test system: SNB-75 CNS
Experiment: NCI-60 one-dose screen, 48 h
Settings: 10 µM unless noted
The panel holds about 83,000 compounds, 20% with a hit somewhere; the sample as a whole holds those more often. Activity calls are given as the source filed them. How the source made its calls: active means growth percent below 10; inactive means the rest.
Outcomes: active, inactive

[
  {
    "MOLECULE": "COC(=O)c1c2c(c(C)[n+]([O-])c1C)C(=O)C=C(NCc1ccc(Cl)cc1)C2=O",
    "GROUP": "active"
  },
  {
    "MOLECULE": "O=C1CC2c3cc(-c4cc5ccccc5o4)ccc3CCN2C(=O)N1c1ccccc1 (stereo not given)",
    "GROUP": "inactive"
  },
  {
    "MOLECULE": "O=C(N/N=C/c1ccc2c(c1)OCO2)c1cnn2c1NC(c1ccccc1)C2 (stereo not given)",
    "GROUP": "inactive"
  },
  {
    "MOLECULE": "O=C(CCCCCCC(=O)Nc1ccc2c(c1)/C(=C/c1ccc[nH]1)C(=O)N2)NO",
    "GROUP": "inactive"
  },
  {
    "MOLECULE": "Cc1ccc(N(CSc2ccc(Cl)cc2)CSc2ccc(Cl)cc2)cc1",
    "GROUP": "inactive"
  }
]
